# Tested on: NCI-H460 lung
Classes used: yes (1) = active, no (0) = inactive

{"MOLECULE": "CCC(C)CC(C)C(=O)c1c(O)ccn(O)c1=O (stereo unspecified)", "DISCRETE_LABEL": "no (0)"}
{"MOLECULE": "O=C1/C(=C\\c2ccccc2)CN(C(=O)c2ccccc2)C/C1=C\\c1ccccc1", "DISCRETE_LABEL": "no (0)"}
{"MOLECULE": "Brc1ccc(Nc2nc3ccccc3nc2Nc2ccc(Br)cc2)cc1", "DISCRETE_LABEL": "yes (1)"}
{"MOLECULE": "COc1cc2c(cc1OCCCCn1c(-c3cccs3)nc3ccccc31)N=C[C@@H]1CCCN1C2=O", "DISCRETE_LABEL": "no (0)"}
{"MOLECULE": "O=Cc1ccc(-c2ccc(-c3ccc(C=O)o3)[se]2)o1", "DISCRETE_LABEL": "no (0)"}
{"MOLECULE": "O=c1[nH]c2ccccc2n2cc3ccccc3c12", "DISCRETE_LABEL": "no (0)"}
{"MOLECULE": "N#C/C(=C\\c1ccc(F)cc1)n1nc2cccc(F)c2n1", "DISCRETE_LABEL": "no (0)"}
{"MOLECULE": "COc1ccc(/C=C/C(=O)c2ccc(Nc3nc(Nc4ccc(F)cc4)nc(Nc4ccc(Cl)cc4)n3)cc2)cc1", "DISCRETE_LABEL": "no (0)"}
{"MOLECULE": "NC(=O)CCc1ccccc1Oc1nccc(-c2c(-c3ccc(F)cc3)ncn2C2CCNCC2)n1", "DISCRETE_LABEL": "no (0)"}
{"MOLECULE": "CCCCCCc1cc2cc(-c3csc(/C=C/c4ccccc4)n3)c(=O)oc2cc1O", "DISCRETE_LABEL": "no (0)"}
{"MOLECULE": "FC(F)(F)c1ccc(-c2ncc(-c3ccc(C(F)(F)F)cc3)c(NCc3cc(C(F)(F)F)cc(C(F)(F)F)c3)n2)cc1", "DISCRETE_LABEL": "no (0)"}
{"MOLECULE": "N#Cc1c2ccccc2c2nnc3ccccc3n12", "DISCRETE_LABEL": "no (0)"}
{"MOLECULE": "CN(CSc1ccc(Cl)cc1)c1ccc(CSc2ccc(Cl)cc2)cc1", "DISCRETE_LABEL": "no (0)"}
{"MOLECULE": "O=C([O-])CCc1ccccc1.O=C([O-])CCc1ccccc1.O=C([O-])CCc1ccccc1.O=C([O-])CCc1ccccc1.[Mo+2].[Mo+2]", "DISCRETE_LABEL": "no (0)"}
{"MOLECULE": "O=C(Cc1ccc(Nc2ccnc(C(F)(F)F)c2)cc1)N/N=C/c1ccccc1O", "DISCRETE_LABEL": "no (0)"}
{"MOLECULE": "COc1ccc(C2CC(c3ccc4ccccc4c3)=NN2c2nc(O)c(C3=c4cc(OC)ccc4=NC3=O)s2)cc1 (stereo unspecified)", "DISCRETE_LABEL": "yes (1)"}
{"MOLECULE": "CC(=O)OCC1OC([Se-])C(OC(C)=O)C(OC(C)=O)C1OC(C)=O.N#CCC[PH+](CCC#N)CCC#N.[Au+] (stereo unspecified)", "DISCRETE_LABEL": "no (0)"}
{"MOLECULE": "Cc1cc(C(O)(c2ccc(Nc3ccccc3)cc2)c2ccc(Nc3ccc(S(=O)(=O)O)cc3)cc2)ccc1N (stereo unspecified)", "DISCRETE_LABEL": "no (0)"}
{"MOLECULE": "CCC(C)(C)[C@H](NC(=O)[C@H]1CCCCN1C)C(=O)N(C)[C@H](C[C@@H](OC(C)=O)c1nc(C(=O)N[C@@H](Cc2ccccc2)C[C@H](C)C(=O)O)cs1)C(C)C", "DISCRETE_LABEL": "yes (1)"}
{"MOLECULE": "O=C(Nc1ccc(I)cc1)c1cccc([N+](=O)[O-])c1O", "DISCRETE_LABEL": "no (0)"}
{"MOLECULE": "O=C1c2cccnc2C(=O)c2c1c(C(=O)OCCc1ccccn1)c1ccccn21", "DISCRETE_LABEL": "yes (1)"}
